From: patent US4123541A

Experiment: Acute toxicity (LD50), mortality observed for 168 hours
Conditions: mouse, in vivo, ip; read-out: LD50 in Mice
Friendly reminder: LD50 at 168 h below 300 mg/kg is T, at or above is F.

For this molecule, is LD50 at 168 h lower than 300 mg/kg? CCCNCc1ncc(-c2ccc(F)cc2)o1 T

For this molecule, is LD50 at 168 h lower than 300 mg/kg? CCNCc1ncc(-c2ccc(Cl)cc2)o1 T

For this molecule, is LD50 at 168 h lower than 300 mg/kg? NCc1ncc(-c2ccc(Cl)cc2)o1 F

For this molecule, is LD50 at 168 h lower than 300 mg/kg? CNCc1ncc(-c2ccccc2)o1 T

Next:
For this molecule, is LD50 at 168 h lower than 300 mg/kg? CCCNCc1ncc(-c2ccc(Cl)cc2)o1 F

For this molecule, is LD50 at 168 h lower than 300 mg/kg? CCNCc1ncc(-c2ccccc2Cl)o1 T

For this molecule, is LD50 at 168 h lower than 300 mg/kg? CN(C)Cc1ncc(-c2ccc(Cl)cc2)o1 F

For this molecule, is LD50 at 168 h lower than 300 mg/kg? CNCc1ncc(-c2ccc(Cl)cc2)o1 T

For this molecule, is LD50 at 168 h lower than 300 mg/kg? CCNCc1ncc(-c2ccccc2)o1 T

For this molecule, is LD50 at 168 h lower than 300 mg/kg? OCCN1CCN(Cc2ncc(-c3ccc(Cl)cc3)o2)CC1 T

====

Tested on: AcOH induced Writhing in Mice
Test: Analgesic activity: (A) writhing syndrome induced by acetic acid
Assay type: in vivo, mice of ddY strain
Conditions: Mus musculus, sc, Litchfield-Wilcoxon's method
resultType: ED50

// known answers, use as guide
Query: ED50; subject: Cc1c(N(C)C)c(=O)n(-c2ccccc2)n1C [Aminopyrine, reference compound] 37 mg/kg

Query: ED50; subject: CN(C)Cc1ncc(-c2ccc(Cl)cc2)o1 78 mg/kg

Query: ED50; subject: OCCN1CCN(Cc2ncc(-c3ccc(Cl)cc3)o2)CC1 16 mg/kg

Query: ED50; subject: CCNCc1ncc(-c2ccc(Cl)cc2)o1 1.9 mg/kg

Query: ED50; subject: NCc1ncc(-c2ccc(Cl)cc2)o1 6 mg/kg

Next:
Query: ED50; subject: CNCc1ncc(-c2ccc(Cl)cc2)o1 22 mg/kg

Query: ED50; subject: CNCc1ncc(-c2ccccc2)o1 10.1 mg/kg

====

Tested on: carageenin-induced rat paw inflammation
Assay: Anti-inflammatory activity: carrageenin-induced rat paw inflammation (edema), oral
Type: in vivo, rats of Wistar-King strain
Settings: oral dose 25 mg/kg, 3 hours after carrageenin, read-out: Anti-inflammatory Activity (carageenin-induced rat paw inflammation) Percent Inhibition of Swelling
Procedure: The anti-inflammatory activity of the 2-aminomethyl-5-phenyloxazoles was compared with that of aminopyrine. Eight male rats of Wistar-King strain, each weighing between 120 to 150 grams, were used for each group. […] The volume of the paw was measured plethysmographically 3 hours after the injection, and the difference in volume between the edematous foot and the normal foot was regarded as the degree of edema. Each percent inhibition was calculated in comparison with the control. […]
resultType: inhibition in vivo at 25 mg/kg (%)
Enter your answer as a number in %; do not include the unit.

Query: inhibition in vivo at 25 mg/kg; subject: Cc1c(N(C)C)c(=O)n(-c2ccccc2)n1C [Aminopyrine, reference compound] 23

Query: inhibition in vivo at 25 mg/kg; subject: NCc1ncc(-c2ccccc2Cl)o1 28

Query: inhibition in vivo at 25 mg/kg; subject: CCNCc1ncc(-c2ccc(Cl)cc2)o1 43

Next:
Query: inhibition in vivo at 25 mg/kg; subject: CCNCc1ncc(-c2ccc(Cl)c(Cl)c2)o1 27

Query: inhibition in vivo at 25 mg/kg; subject: OCCN1CCN(Cc2ncc(-c3ccc(Cl)cc3)o2)CC1 27

Query: inhibition in vivo at 25 mg/kg; subject: NCc1ncc(-c2ccc(Cl)cc2)o1 25

Query: inhibition in vivo at 25 mg/kg; subject: CNCc1ncc(-c2ccccc2)o1 5
